Target: Polyunsaturated fatty acid 5-lipoxygenase (Homo sapiens)
Assay: In vitro inhibition of human 5-Lipoxygenase.

- compound: "CC1Cc2c(OCc3ccc(-c4ccccc4)cn3)ccc3c2c(c(CCOC(C)C(=O)NS(C)(=O)=O)n3Cc2ccc(Cl)cc2)S1 (stereo not drawn)"
  IC50: "22 nM"
- compound: "CCC(OCCc1c2c3c(c(OCc4ccc(-c5ccccc5)cn4)ccc3n1Cc1ccc(Cl)cc1)CC(C)S2)C(=O)O (stereo in doubt; 14d)"
  IC50: "22 nM"
- compound: "CC1Cc2c(OCc3ccc(-c4ccccc4)cn3)ccc3c2c(c(COCCC(=O)O)n3Cc2ccc(Cl)cc2)S1 (stereo not drawn)"
  IC50: "250 nM"

---

Species: Homo sapiens
Assay: Effect on production of LTB4 in human polymorphonuclear leukocytes
Type: functional
The label T is reserved for IC50 strictly under 10 nM; F covers values equal to or above it.

- compound: "CCC(OCCc1c2c3c(c(OCc4ccc(-c5ccccc5)cn4)ccc3n1Cc1ccc(Cl)cc1)CC(C)S2)C(=O)O (stereo in doubt; 14h)"
  qualitative.label: "F"
- compound: "CCC(OCCc1c2c3c(c(OCc4ccc(-c5ccccc5)cn4)ccc3n1Cc1ccc(Cl)cc1)CC(C)S2)C(=O)O (stereo in doubt; 14e)"
  qualitative.label: "T"
- compound: "CCC(OCCc1c2c3c(c(OCc4ccc(-c5ccccc5)cn4)ccc3n1Cc1ccc(Cl)cc1)CC(C)S2)C(=O)O (stereo in doubt; 14g)"
  qualitative.label: "T"
- compound: "CCC(OCCc1c2c3c(c(OCc4ccc(-c5ccccc5)cn4)ccc3n1Cc1ccc(Cl)cc1)CC(C)S2)C(=O)O (stereo in doubt; 14d)"
  qualitative.label: "T"

---

Target: Polyunsaturated fatty acid 5-lipoxygenase (Homo sapiens, UniProt P09917)
Sequence (P09917 whole entry): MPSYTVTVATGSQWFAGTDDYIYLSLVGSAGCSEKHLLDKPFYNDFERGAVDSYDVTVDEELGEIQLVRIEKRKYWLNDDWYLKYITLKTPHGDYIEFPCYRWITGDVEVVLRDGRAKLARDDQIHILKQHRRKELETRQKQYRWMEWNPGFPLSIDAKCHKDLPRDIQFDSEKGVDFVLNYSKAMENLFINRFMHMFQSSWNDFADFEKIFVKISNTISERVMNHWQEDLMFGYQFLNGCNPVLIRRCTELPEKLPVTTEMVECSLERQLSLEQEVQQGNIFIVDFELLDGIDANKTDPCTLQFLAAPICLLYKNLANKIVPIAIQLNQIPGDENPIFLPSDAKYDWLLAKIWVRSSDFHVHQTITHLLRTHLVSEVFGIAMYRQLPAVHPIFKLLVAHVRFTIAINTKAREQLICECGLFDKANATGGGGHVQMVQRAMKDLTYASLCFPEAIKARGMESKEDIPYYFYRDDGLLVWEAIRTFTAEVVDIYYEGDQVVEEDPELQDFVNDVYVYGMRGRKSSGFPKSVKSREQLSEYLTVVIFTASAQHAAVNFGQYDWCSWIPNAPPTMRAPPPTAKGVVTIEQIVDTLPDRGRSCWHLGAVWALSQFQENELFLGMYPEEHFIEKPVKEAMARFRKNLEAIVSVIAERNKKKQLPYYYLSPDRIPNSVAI
Assay: Tested against 5-lipoxygenase
pIC50: −log10 of the molar value.
assay.readout: pIC50

- compound: "CC1Cc2c(OCc3ccc(-c4ccccc4)cn3)ccc3c2c(c(CCOC(C)c2nnn[nH]2)n3Cc2ccc(Cl)cc2)S1 (stereo unspecified)"
  measured.result: 7.22

---

Test: Tmax value in rat plasma when administered 20 mg/kg perorally
Format: ADME, organism-based
Set-up: dose 20 mg/kg, route oral
Conditions: po
assay.readout: Tmax (h)

- molecule: "CCC(OCCc1c2c3c(c(OCc4ccc(-c5ccccc5)cn4)ccc3n1Cc1ccc(Cl)cc1)CC(C)S2)C(=O)O (stereo in doubt; 14d)"
  unit.descriptor: "h"
  measured.result: 6
- molecule: "CC1Cc2c(OCc3ccc(-c4ccccc4)cn3)ccc3c2c(c(CCOC(C)C(=O)O)n3Cc2ccc(Cl)cc2)S1 (stereo not drawn)"
  unit.descriptor: "h"
  measured.result: 2
- molecule: "CCC(OCCc1c2c3c(c(OCc4ccc(-c5ccccc5)cn4)ccc3n1Cc1ccc(Cl)cc1)CC(C)S2)C(=O)NS(C)(=O)=O (stereo not drawn)"
  unit.descriptor: "h"
  measured.result: 4

---

Species: Homo sapiens
Assay: Effect on production of LTB4 in human whole blood
Assay type: functional
Settings: Homo sapiens, Blood
pIC50: −log10 of the molar value.

- molecule: "CC(c1cc2ccccc2s1)N(O)C(N)=O (stereo unspecified) [ZILEUTON]"
  pIC50: 5.70

---

Assay: Cmax value in rat plasma when administered 20 mg/kg perorally
Assay type: ADME, organism-based
Set-up: dose 20 mg/kg, route oral
Conditions: po

- compound: "CCC(OCCc1c2c3c(c(OCc4ccc(-c5ccccc5)cn4)ccc3n1Cc1ccc(Cl)cc1)CC(C)S2)C(=O)O (stereo in doubt; 14d)"
  Cmax, µM: 5.5
- compound: "CC1Cc2c(OCc3ccc(-c4ccccc4)cn3)ccc3c2c(c(CCOC(C)C(=O)O)n3Cc2ccc(Cl)cc2)S1 (stereo not drawn)"
  Cmax, µM: 3.8
- compound: "CCC(OCCc1c2c3c(c(OCc4ccc(-c5ccccc5)cn4)ccc3n1Cc1ccc(Cl)cc1)CC(C)S2)C(=O)NS(C)(=O)=O (stereo not drawn)"
  Cmax, µM: 4

---

Biological target: Polyunsaturated fatty acid 5-lipoxygenase (Homo sapiens)
Test: In vitro inhibition of human 5-Lipoxygenase.
pIC50: −log10 of the molar value.
Quick reference for pIC50 among some compounds
assay.readout: pIC50

- compound: "CC(CC(=O)O)SCc1c2c3c(c(OCc4ccc(-c5ccccc5)cn4)ccc3n1Cc1ccc(Cl)cc1)CC(C)S2 (stereo not given)"
  measured.result: 7.15
- compound: "CC1Cc2c(OCc3ccc(-c4ccccc4)cn3)ccc3c2c(c(CCNC(C)C(=O)O)n3Cc2ccc(Cl)cc2)S1 (stereo not given)"
  measured.result: 5.40
- compound: "CCC(OCCc1c2c3c(c(OCc4ccc(-c5ccccc5)cn4)ccc3n1Cc1ccc(Cl)cc1)CC(C)S2)C(=O)O (stereo in doubt; 14f)"
  measured.result: 6.82
- compound: "CC[C@@H](CSCc1c2c3c(c(OCc4ccc(-c5ccccc5)cn4)ccc3n1Cc1ccc(Cl)cc1)CC(C)S2)C(=O)O (stereo not given in full)"
  measured.result: 7.40
- compound: "CC1Cc2c(OCc3ccc(-c4ccccc4)cn3)ccc3c2c(c(CSCCC(=O)O)n3Cc2ccc(Cl)cc2)S1 (stereo not given)"
  measured.result: 7.26
- compound: "CC1Cc2c(OCc3ccc(-c4ccccc4)cn3)ccc3c2c(c(CCOCCC(=O)O)n3Cc2ccc(Cl)cc2)S1 (stereo not given)"
  measured.result: 6.98
- compound: "CC[C@H](CSCc1c2c3c(c(OCc4ccc(-c5ccccc5)cn4)ccc3n1Cc1ccc(Cl)cc1)CC(C)S2)C(=O)O (stereo not given in full)"
  measured.result: 6.92
- compound: "CCC(OCCc1c2c3c(c(OCc4ccc(-c5ccccc5)cn4)ccc3n1Cc1ccc(Cl)cc1)CC(C)S2)C(=O)O (stereo in doubt; 14e)"
  measured.result: 7.89
- compound: "CCC(OCCc1c2c3c(c(OCc4ccc(-c5ccccc5)cn4)ccc3n1Cc1ccc(Cl)cc1)CC(C)S2)C(=O)O (stereo in doubt; 14h)"
  measured.result: 7.10
- compound: "CCC(OCCc1c2c3c(c(OCc4ccc(-c5ccccc5)cn4)ccc3n1Cc1ccc(Cl)cc1)CC(C)S2)C(=O)O (stereo in doubt; 14g)"
  measured.result: 8.10
- compound: "CCC(OCCc1c2c3c(c(OCc4ccc(-c5ccccc5)cn4)ccc3n1Cc1ccc(Cl)cc1)CC(C)S2)C(=O)NS(C)(=O)=O (stereo not given)"
  measured.result: 7.70
- compound: "CC1Cc2c(OCc3ccc(-c4ccccc4)cn3)ccc3c2c(c(CCOC(C)(C)C(=O)O)n3Cc2ccc(Cl)cc2)S1 (stereo not given)"
  measured.result: 7.30
- compound: "CC(=O)N(CCc1c2c3c(c(OCc4ccc(-c5ccccc5)cn4)ccc3n1Cc1ccc(Cl)cc1)CC(C)S2)C(C)C(=O)O (stereo not given)"
  measured.result: 6.05
- compound: "CC1Cc2c(OCc3ccc(-c4ccccc4)cn3)ccc3c2c(c(CC(=O)N(C)C(C)C(=O)O)n3Cc2ccc(Cl)cc2)S1 (stereo not given)"
  measured.result: 6.52
- compound: "CC1Cc2c(OCc3ccc(-c4ccccc4)cn3)ccc3c2c(c(CCOC(C)C(=O)O)n3Cc2ccc(Cl)cc2)S1 (stereo not given)"
  measured.result: 7.70
